system: UACC-62 melanoma; assay: NCI-60 one-dose screen, 48 h (100 = growth as untreated, 0 = no growth, -100 = all killed); settings: 10 µM unless noted
Compounds without any hit were thinned out: in the full panel of roughly 83,000, 20% have a hit.
Entries annotated with measured growth
Kindly answer with a numeric value in %, unit omitted.

For record COc1ccc2oc3c(ccc[n+]3C)c(=O)c2c1 the listed growth is 92.6

For record CC1=CC(=O)c2cccc(NC3=NCCO3)c21 the listed growth is 87.8

For record NC1=NC(c2ccccc2)N=C(Nc2ccccc2)N1 (stereo not given) the listed growth is 89

For record CN(C=O)c1ccccc1 the listed growth is 88.7

For record Cc1cnc(N)s1 the listed growth is 90.7
